# Test system: Rattus norvegicus
# PROCEDURE DETAILS: Cmax in rat assessed as N-hydroxy-melagatran level at 20 mg/kg, po after 120 mins
# Assay type: ADME, organism-based
# Parameters: dose 20 mg/kg, route oral
# RUN PARAMETERS: in vivo, 2 h
REPORTED PROPERTY: Cmax (nM)
Give bare numbers, in nM.

Quick one: Cmax of "CCOC(=O)CN[C@@H](C(=O)N1CC[C@H]1C(=O)NCc1ccc(/C(N)=N\O)cc1)C1CCCCC1" ?
1100

====

# Tested on: Rattus norvegicus
# PROCEDURE DETAILS: Cmax in rat assessed as melagatran level at 20 mg/kg, po after 120 mins
# Type: ADME, organism-based
# Set-up: dose 20 mg/kg, route oral
# RUN PARAMETERS: in vivo, 2 h
REPORTED PROPERTY: Cmax (nM)
One number for each entry, in nM.

Rattus norvegicus / Cmax / "CCOC(=O)CN[C@@H](C(=O)N1CC[C@H]1C(=O)NCc1ccc(/C(N)=N\O)cc1)C1CCCCC1" : value?
1000

====

# EXPERIMENTAL SYSTEM: Prothrombin (Homo sapiens, UniProt P00734)
REPORTED PROPERTY: log10 Ki (log10 of the value in µM)
On a log10 scale: recorded Ki, unit µM.

- CNC(=O)CCC(=O)N1CCN(C(=O)[C@H](Cc2cccc(C(=N)N)c2)NS(=O)(=O)c2cccc(NC(=O)CCN)c2)CC1: 1.46
- N=C(N)c1cccc(C[C@H](NS(=O)(=O)c2cccc(NC(=O)CCN)c2)C(=O)N2CCCCC2)c1: -0.57
- COC(=O)[C@H]1CCCCN1C(=O)[C@H](Cc1cccc(C(=N)N)c1)NS(=O)(=O)c1cccc(NC(=O)CCN)c1: 1.38
- N=C(N)c1cccc(C[C@H](NS(=O)(=O)c2cccc(NC(=O)CCN)c2)C(=O)N2CCNCC2)c1: 1.86

For the next question, use this molecule.
Query: log10 Ki; subject: "N=C(N)c1cccc(C[C@H](NS(=O)(=O)c2cccc(NC(=O)CCN)c2)C(=O)N2CCCC[C@H]2C(=O)O)c1"
2.20

====

# EXPERIMENTAL SYSTEM: Prothrombin (Homo sapiens)
pKi: −log10 of the molar value.
Label 1.0 when pKi >= 6; otherwise 0.0.

- CCOC(=O)N1CCN(C(=O)[C@H](Cc2cccc(C(=N)N)c2)NS(=O)(=O)c2cccc(NC(=O)CCN)c2)CC1: 0.0
- COC(=O)[C@@H]1CCCCN1C(=O)[C@H](Cc1cccc(C(=N)N)c1)NS(=O)(=O)c1cccc(NC(=O)CCN)c1: 0.0
- COC(=O)CCCC1CCN(C(=O)[C@H](Cc2cccc(C(=N)N)c2)NS(=O)(=O)c2cccc(NC(=O)CCN)c2)CC1: 1.0
- CC1CCCCN1C(=O)[C@H](Cc1cccc(C(=N)N)c1)NS(=O)(=O)c1cccc(NC(=O)CCN)c1 (some centres not stated): 1.0

Turning now to a further record.
Can "N=C(N)c1cccc(C[C@H](NS(=O)(=O)c2cccc(NC(=O)CCN)c2)C(=O)N2CCN(c3ccc(O)cc3)CC2)c1" be said to have pKi at or above 6?
0.0

====

These records show Ki for Urokinase-type plasminogen activator (Homo sapiens, UniProt P00749).
Give bare numbers, in µM.

- N=C(N)c1cccc(C[C@H](NS(=O)(=O)c2cccc(NC(=O)CCN)c2)C(=O)N2CCN(c3ccc(O)cc3)CC2)c1: 8.37
- CNC(=O)CCC(=O)N1CCN(C(=O)[C@H](Cc2cccc(C(=N)N)c2)NS(=O)(=O)c2cccc(NC(=O)CCN)c2)CC1: 16.9
- CCOC(=O)N1CCN(C(=O)[C@H](Cc2cccc(C(=N)N)c2)NS(=O)(=O)c2cccc(NC(=O)CCN)c2)CC1: 9.2
- COC(=O)[C@H]1CCCCN1C(=O)[C@H](Cc1cccc(C(=N)N)c1)NS(=O)(=O)c1cccc(NC(=O)CCN)c1: 76
- N=C(N)c1cccc(C[C@H](NS(=O)(=O)c2cccc(NC(=O)CCN)c2)C(=O)N2CCCC(C(N)=O)C2)c1 (stereo partly specified): 7.4

Each of the following entries comes with a recorded value; kindly state Ki for each.
1. CC1CCCCN1C(=O)[C@H](Cc1cccc(C(=N)N)c1)NS(=O)(=O)c1cccc(NC(=O)CCN)c1 (stereo partly specified)
2. N=C(N)c1cccc(C[C@H](NS(=O)(=O)c2cccc(NC(=O)CCN)c2)C(=O)N2CCCC[C@@H]2C(=O)O)c1
3. N=C(N)c1cccc(C[C@H](NS(=O)(=O)c2cccc(NC(=O)CCN)c2)C(=O)N2CCC(CCCC(=O)O)CC2)c1
4. CC1CCN(C(=O)[C@H](Cc2cccc(C(=N)N)c2)NS(=O)(=O)c2cccc(NC(=O)CCN)c2)CC1
5. N=C(N)c1cccc(C[C@H](NS(=O)(=O)c2cccc(NC(=O)CCN)c2)C(=O)N2CCN(C(=O)OCc3ccccc3)CC2)c1
6. N=C(N)c1cccc(C[C@H](NS(=O)(=O)c2cccc(NC(=O)CCN)c2)C(=O)N2CCCC[C@H]2C(=O)O)c1

1. 34.5
2. 7.3
3. 17
4. 3
5. 3.3
6. 193

====

# EXPERIMENTAL SYSTEM: Plasminogen (Homo sapiens)
# Sequence (P00747 97-580 limits assumed): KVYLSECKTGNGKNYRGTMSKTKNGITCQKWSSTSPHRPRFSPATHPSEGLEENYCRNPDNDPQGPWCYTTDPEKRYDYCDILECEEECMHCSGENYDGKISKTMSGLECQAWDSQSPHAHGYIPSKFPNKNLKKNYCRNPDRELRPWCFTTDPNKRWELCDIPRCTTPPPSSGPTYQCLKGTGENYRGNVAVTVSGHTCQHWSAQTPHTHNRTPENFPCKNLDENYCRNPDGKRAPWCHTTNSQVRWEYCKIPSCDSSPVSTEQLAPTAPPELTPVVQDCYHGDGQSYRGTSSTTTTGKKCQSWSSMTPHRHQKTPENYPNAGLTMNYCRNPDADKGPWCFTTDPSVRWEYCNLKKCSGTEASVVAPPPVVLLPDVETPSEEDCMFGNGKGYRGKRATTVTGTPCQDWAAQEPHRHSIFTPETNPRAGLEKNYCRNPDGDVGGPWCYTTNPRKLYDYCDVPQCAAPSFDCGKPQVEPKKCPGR
# Sequence (P00747 581-810 limits assumed): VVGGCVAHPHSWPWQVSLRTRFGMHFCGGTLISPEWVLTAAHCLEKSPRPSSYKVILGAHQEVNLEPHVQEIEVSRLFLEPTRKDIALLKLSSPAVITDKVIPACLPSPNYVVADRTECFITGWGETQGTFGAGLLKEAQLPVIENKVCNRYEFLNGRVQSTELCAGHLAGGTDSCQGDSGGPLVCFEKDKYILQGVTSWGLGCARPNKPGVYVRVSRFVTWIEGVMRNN
Threshold check on Ki: strictly below 3 µM is Satisfied; on or above 3 µM is Not satisfied.

Answered cases to consult:
• N=C(N)c1cccc(C[C@H](NS(=O)(=O)c2cccc(NC(=O)CCN)c2)C(=O)N2CCCC[C@H]2C(=O)O)c1 = Not satisfied
• COC(=O)CCCC1CCN(C(=O)[C@H](Cc2cccc(C(=N)N)c2)NS(=O)(=O)c2cccc(NC(=O)CCN)c2)CC1 = Satisfied
• N=C(N)c1cccc(C[C@H](NS(=O)(=O)c2cccc(NC(=O)CCN)c2)C(=O)N2CCC(C(N)=O)CC2)c1 = Satisfied
• N=C(N)c1cccc(C[C@H](NS(=O)(=O)c2cccc(NC(=O)CCN)c2)C(=O)N2CCCCC2)c1 = Not satisfied
• N=C(N)c1cccc(C[C@H](NS(=O)(=O)c2cccc(NC(=O)CCN)c2)C(=O)N2CCNCC2)c1 = Satisfied

Pending molecule:
In plain terms, does "CNC(=O)CCCC1CCN(C(=O)[C@H](Cc2cccc(C(=N)N)c2)NS(=O)(=O)c2cccc(NC(=O)CCN)c2)CC1" come in under 3 µM for Ki?
Satisfied

====

# EXPERIMENTAL SYSTEM: Suppressor of tumorigenicity 14 protein (Homo sapiens, UniProt Q9Y5Y6)
# Sequence (Q9Y5Y6 whole entry): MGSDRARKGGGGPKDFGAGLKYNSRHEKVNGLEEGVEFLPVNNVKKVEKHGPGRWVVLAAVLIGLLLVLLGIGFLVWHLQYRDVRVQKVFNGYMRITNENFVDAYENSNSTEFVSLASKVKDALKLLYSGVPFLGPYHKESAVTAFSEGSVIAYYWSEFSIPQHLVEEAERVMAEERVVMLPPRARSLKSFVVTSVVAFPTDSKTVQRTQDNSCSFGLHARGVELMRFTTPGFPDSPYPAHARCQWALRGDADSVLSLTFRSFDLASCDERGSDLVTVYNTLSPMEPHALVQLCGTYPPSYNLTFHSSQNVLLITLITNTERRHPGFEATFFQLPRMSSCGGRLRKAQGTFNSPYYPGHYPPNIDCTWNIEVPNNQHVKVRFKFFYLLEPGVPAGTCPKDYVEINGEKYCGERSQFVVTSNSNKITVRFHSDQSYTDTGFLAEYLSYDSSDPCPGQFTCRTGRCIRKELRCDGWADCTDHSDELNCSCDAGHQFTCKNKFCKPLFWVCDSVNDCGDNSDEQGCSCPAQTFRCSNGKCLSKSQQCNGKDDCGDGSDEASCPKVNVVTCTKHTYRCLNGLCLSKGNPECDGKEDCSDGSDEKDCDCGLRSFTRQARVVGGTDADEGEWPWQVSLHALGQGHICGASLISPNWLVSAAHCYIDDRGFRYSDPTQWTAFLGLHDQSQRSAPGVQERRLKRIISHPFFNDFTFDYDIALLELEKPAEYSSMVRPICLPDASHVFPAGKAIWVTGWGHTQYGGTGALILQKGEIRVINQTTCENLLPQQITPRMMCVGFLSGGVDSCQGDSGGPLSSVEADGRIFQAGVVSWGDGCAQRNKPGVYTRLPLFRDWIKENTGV
pKi: −log10 of the molar value.
Give 1 when the value for pKi is at least 7. Give -1 when it is less.

Please review the entries below; each comes with its answer.
- CC1CCN(C(=O)[C@H](Cc2cccc(C(=N)N)c2)NS(=O)(=O)c2cccc(NC(=O)CCN)c2)CC1: 1
- N=C(N)c1cccc(C[C@H](NS(=O)(=O)c2cccc(NC(=O)CCN)c2)C(=O)N2CCCC[C@H]2C(=O)O)c1: -1
- N=C(N)c1cccc(C[C@H](NS(=O)(=O)c2cccc(NC(=O)CCN)c2)C(=O)N2CCCCC2)c1: 1
- CNC(=O)CCC(=O)N1CCN(C(=O)[C@H](Cc2cccc(C(=N)N)c2)NS(=O)(=O)c2cccc(NC(=O)CCN)c2)CC1: 1
- N=C(N)c1cccc(C[C@H](NS(=O)(=O)c2cccc(NC(=O)CCN)c2)C(=O)N2CCC(C(N)=O)CC2)c1: 1

Moving on to another compound below.
pKi >= 7 for "N=C(N)c1cccc(C[C@H](NS(=O)(=O)c2cccc(NC(=O)CCN)c2)C(=O)N2CCN(C(=O)OCc3ccccc3)CC2)c1" ?
1
